# MEASUREMENT_PROTOCOL: in vivo
# STATED_CONDITIONS: male, BALB/c, mouse, in vivo, iv, 5 mg/kg, VdSS
PROPERTY_LABEL: Vd (L/kg)
Give just the numeric value; L/kg need not be written.

## Task Could you tell me which Vd is on file for CC(=O)O[C@H]1C(=O)[C@@]2(C)[C@H]([C@H](OC(=O)c3ccccc3)[C@]3(O)C[C@H](OC(=O)[C@H](O)[C@@H](NC(=O)c4ccccc4)c4ccccc4)C(C)=C1C3(C)C)[C@]1(OC(C)=O)CO[C@@H]1C[C@@H]2O [Paclitaxel, reference compound] ?
## Result 2.31
